Cited source: ChEMBL document CHEMBL1828508

experiment description: Metabolic stability of the compound in Wistar rat plasma assessed as half life at 1 uM by RP-HPLC analysis
Format: ADME, cell-free
protocol conditions: Wistar
property label: half-life at 1 µM
// return the numeric value with its unit appended

O=C(NC1CCCCC1)Oc1cccc(-c2ccccc2)c1	42.7 min

# input for lookup
The reported value for NC(=O)c1cccc(-c2cccc(OC(=O)NC3CCCCC3)c2)c1 in terms of half-life at 1 µM is 33 min

====

Assign Stability to each entry below.
experiment description: Chemical stability of the compound in 0.01 M PBS assessed as compound remaining at pH 7.4 by HPLC analysis; also: time not given here
protocol conditions: buffer
Numbers only, in %.

Here are 3 compounds together with their reported answers.
CNC(=O)Oc1cccc(-c2ccccc2)c1	33.9
NC(=O)c1cccc(-c2cccc(OC(=O)NCCCCc3ccccc3)c2)c1	18.8
CCCCNC(=O)Oc1cccc(-c2ccccc2)c1	46.7

// for each compound below, give its Stability
1. O=C(NC1CCCCC1)Oc1cccc(-c2ccccc2)c1
2. O=C(NC1Cc2ccccc2C1)Oc1cccc(-c2ccccc2)c1

1: 41.1; 2: 16.2

Measured Stability of NC(=O)c1cccc(-c2cccc(OC(=O)NCc3ccc4ccccc4c3)c2)c1 : 22.8
